B1: library; numbered along this chain (parent)
chain: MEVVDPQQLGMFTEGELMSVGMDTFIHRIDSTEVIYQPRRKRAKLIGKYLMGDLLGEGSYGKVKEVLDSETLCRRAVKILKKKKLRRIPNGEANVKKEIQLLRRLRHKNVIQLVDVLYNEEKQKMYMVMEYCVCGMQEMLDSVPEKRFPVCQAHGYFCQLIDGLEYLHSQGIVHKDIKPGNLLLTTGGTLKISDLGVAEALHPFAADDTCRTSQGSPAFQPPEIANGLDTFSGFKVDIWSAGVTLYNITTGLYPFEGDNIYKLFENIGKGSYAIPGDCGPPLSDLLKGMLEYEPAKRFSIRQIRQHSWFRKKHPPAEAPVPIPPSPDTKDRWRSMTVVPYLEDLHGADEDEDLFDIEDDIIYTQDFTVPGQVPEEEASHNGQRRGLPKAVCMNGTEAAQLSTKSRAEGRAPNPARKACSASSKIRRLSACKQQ

- Variants of: B1
- measurement.protocol: STK11 functional score (HeLa growth suppression), rescaled enrichment; synonymous median = 1, nonsense median = 0 (normalised score)
- condition.parameters: with HeLa; variant type: missense
Sorting guide: entries reporting STK11 functional score beneath 1 go in the condition met pile, the rest go in the condition not met pile.

Here are 2 variants together with their reported answers.
INSERT INTO assay_data (mutation_key, label_class) VALUES
  ('H174I', 'condition met'),
  ('L252W', 'condition not met');

In plain terms, does "N412G" come in under 1 for STK11 functional score? condition not met

In plain terms, does "V390R" come in under 1 for STK11 functional score? condition not met

In plain terms, does "V110R" come in under 1 for STK11 functional score? condition met

In plain terms, does "V95F" come in under 1 for STK11 functional score? condition met

In plain terms, does "L183F" come in under 1 for STK11 functional score? condition met

In plain terms, does "V390E" come in under 1 for STK11 functional score? condition not met
